Test System: S. aureus MetRS (Staphylococcus aureus)
Sequence (Q5HII6 whole entry): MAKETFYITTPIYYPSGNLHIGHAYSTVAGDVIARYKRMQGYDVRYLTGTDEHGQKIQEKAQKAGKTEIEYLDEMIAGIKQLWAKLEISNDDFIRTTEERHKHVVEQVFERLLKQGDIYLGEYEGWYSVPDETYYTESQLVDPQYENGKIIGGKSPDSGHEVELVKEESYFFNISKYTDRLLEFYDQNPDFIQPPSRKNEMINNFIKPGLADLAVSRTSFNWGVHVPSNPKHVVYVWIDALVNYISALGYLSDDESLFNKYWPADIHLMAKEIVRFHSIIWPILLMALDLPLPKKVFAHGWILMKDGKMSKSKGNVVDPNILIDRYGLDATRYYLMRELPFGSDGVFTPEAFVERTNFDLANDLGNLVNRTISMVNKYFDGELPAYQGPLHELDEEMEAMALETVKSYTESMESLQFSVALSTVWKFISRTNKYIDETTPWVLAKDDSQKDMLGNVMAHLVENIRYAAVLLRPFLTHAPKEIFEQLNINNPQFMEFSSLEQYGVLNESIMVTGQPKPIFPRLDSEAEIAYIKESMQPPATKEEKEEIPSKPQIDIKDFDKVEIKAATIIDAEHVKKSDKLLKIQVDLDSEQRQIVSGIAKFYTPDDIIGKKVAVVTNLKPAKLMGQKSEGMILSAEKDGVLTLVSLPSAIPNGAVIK
Test Name: S. aureus MetRS aminoacylation (functional charging) assay
Assay type: biochemical
Run Conditions: methionine varied, ATP held at 1.5 mM; read-out: Kl (methionine)
Reported Metric: Ki (µM)
The response must be a number in µM with no trailing unit.

Ask: What does the data say about its Ki? Entry: MWDLPYIWSRPV [JT02]
Reply: 1.7
